protein stability index values by entry
# Assay Remarks: protein stability index of a GFP-peptide fusion (yeast GPS) (PSI 1-4); higher = more stable; sorted into four equal gates, so the index is relative within each strain
# Setup Conditions: pdr5∆
Give the value as a plain number.

Please review the following examples before continuing.
DIENKEEEYDETHETNI [YAR002W/NUP60] :: 3.21
IGAAELNENARELEQIK [SNF12] :: 3.18
LKRLAWQYIVIDEAHRI [ISW2] :: 1.78
KQVQDFEENDHPNRVLE [COR1] :: 3.29
YRTPGSSGVLSSNIAGT [SSN2] :: 3.29
LTFHTLKKANIIYHTTF [YLR018C/POM34] :: 2.25
IPSLANNGNNSTSIQYH [POP6] :: 2.95
LSSAGAKSTVETFISSM [RIP1] :: 2.8
DHKFPIRENKVTYSRVS [BRN1] :: 2.9
KLEYPHTDVSSSLEARY [RPN3] :: 3.01

### Prompt Entry IDADSLEDIYTSAHEAI [RPL5] needs its protein stability index filled in; supply it.
### Response 3.02

### Prompt Entry QSVYNDEKLKTEKLKND [SRB8] needs its protein stability index filled in; supply it.
### Response 3.74

### Prompt Entry KSHKQTIVTGGGSGNGD [RPP1] needs its protein stability index filled in; supply it.
### Response 3.55

### Prompt Entry PMVSVMKMDKSPTESYS [RPT2] needs its protein stability index filled in; supply it.
### Response 1.57

---

# Assay Remarks: protein stability index of a GFP-peptide fusion (yeast GPS) (PSI 1-4); higher = more stable; sorted into four equal gates, so the index is relative within each strain
# Setup Conditions: san1∆
Quantity Name: protein stability index
Give the value as a plain number.

RYFFYLSKINAIQLDYS [RPN3] :: 1.34
IPDLSIQNDIYLNDLMI [RPN12] :: 2.99
WIAMRREKRDRTHFKRM [PRP8] :: 2.04
KNEETPQNEKPPAYALL [RPC25] :: 2.05
LYKFQNFQDLSYLSETL [YML103C/NUP188] :: 2.64

### Prompt Entry YVDPETTYTYQQPNPLQ [ROX3] needs its protein stability index filled in; supply it.
### Response 2.02

### Prompt Entry KPLGTTRAMEYLKFREL [RPB2] needs its protein stability index filled in; supply it.
### Response 3.13

### Prompt Entry NTPLVGAAFKVISNLVP [YJL039C/NUP192] needs its protein stability index filled in; supply it.
### Response 2.73

### Prompt Entry MSIDEEDKDSESFSEVC [YCG1] needs its protein stability index filled in; supply it.
### Response 2.48

### Prompt Entry CKQFPKLSCIQLNCIDT [SRB8] needs its protein stability index filled in; supply it.
### Response 1.52

---

# Assay Remarks: protein stability index of a GFP-peptide fusion (yeast GPS) (PSI 1-4); higher = more stable; sorted into four equal gates, so the index is relative within each strain
# Setup Conditions: ubr1∆
Quantity Name: protein stability index

Please review the following examples before continuing.
TRDVEPENLQVTSEKYP [BRR2] :: 3.13
TSPTMPDYYVSILSFVD [RPT2] :: 2.15
ILNLYSSAHLIRINDEP [YML103C/NUP188] :: 1.77

### Prompt Entry FEFNIRHSGKVYPITLS [UBP6] needs its protein stability index filled in; supply it.
### Response 1.22

### Prompt Entry NKNGENKKIGKRPPEIM [SIR4] needs its protein stability index filled in; supply it.
### Response 3.28

### Prompt Entry NRLEKEQSVKTQNSRHY [LIN1] needs its protein stability index filled in; supply it.
### Response 2.49

### Prompt Entry YDDFIYLSDLKQFFQMT [PCI8] needs its protein stability index filled in; supply it.
### Response 2.87
